Assay: Partition coefficient (logP)
Format: physicochemical
Details: octanol/water
value_kind: logP
Output spec: single numeric token, no unit.

Consider the following illustrative entries.
input_smiles | recorded_number
COC(=O)CCCNC(=O)NC12CC3CC(CC(C3)C1)C2 | 0.18
CCCCCCCCCCNC(=O)NC1CCCCC1 | 5.44
CCCCCOC(=O)CCCNC(=O)NC1CCCCC1 | 0.82

Noted for `O=C(O)CCCNC(=O)NC12CC3CC(CC(C3)C1)C2` : its logP reads 0.14

====

Measured IC50, listed per entry for reference.
Biological target: Bifunctional epoxide hydrolase 2 (Homo sapiens)
Sequence (P34913 whole entry): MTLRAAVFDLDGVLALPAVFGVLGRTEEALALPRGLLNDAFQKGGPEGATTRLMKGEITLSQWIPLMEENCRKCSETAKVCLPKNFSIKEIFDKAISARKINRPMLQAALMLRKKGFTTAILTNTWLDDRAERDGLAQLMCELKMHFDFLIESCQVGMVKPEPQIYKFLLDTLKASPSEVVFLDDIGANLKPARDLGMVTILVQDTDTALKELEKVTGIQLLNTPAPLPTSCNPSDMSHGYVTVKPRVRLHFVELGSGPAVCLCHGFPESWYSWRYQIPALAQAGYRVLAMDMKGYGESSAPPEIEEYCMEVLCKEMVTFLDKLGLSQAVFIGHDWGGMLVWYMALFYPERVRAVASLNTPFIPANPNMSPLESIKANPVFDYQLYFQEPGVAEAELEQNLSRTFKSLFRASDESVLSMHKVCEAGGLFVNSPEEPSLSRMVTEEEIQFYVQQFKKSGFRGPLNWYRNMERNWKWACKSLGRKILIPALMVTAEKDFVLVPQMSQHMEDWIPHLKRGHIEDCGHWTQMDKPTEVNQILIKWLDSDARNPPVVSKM
Assay: Tested for 50 % inhibitory concentration against human soluble epoxide hydrolase (sEH)

Consider the following illustrative entries.
input_smiles | IC50
O=C(NCCCO)NC1CCCCC1 | > 500 µM
CCCCCNC(=O)NCCNC(=O)Nc1cccc(Cl)c1 | > 100 µM
O=C(O)CNC(=O)NC1CCCCC1 | > 500 µM
CCCCCCC(=O)NCCNC(=O)Nc1cccc(Cl)c1 | > 100 µM

Noted for `CCCCCOC(=O)NCCNC(=O)Nc1cccc(Cl)c1` : its IC50 reads > 100 µM
